- measurementNotes: Drug repurposing screens with cells derived from glioblastoma tumor samples (AID 1345199); also: % is scaled to controls: 0 for no effect and ±100 for the full control effect; nearly all actives have a fitted effect of over 40% in size
- experimentalParameters: GBM patient neurospheres viability, ATP luminescence, 48 h; at 20 µM (top of the series); tumour line C
Results filed as inconclusive are left out.
attributeMeasured: activity, negative = cell killing (%)
Entry rule: numbers only, all in %.

For orientation, consider the following solved cases.
compound | activity, negative = cell killing [%]
CCCCC1(COC(=O)CCC(=O)O)C(=O)N(c2ccccc2)N(c2ccccc2)C1=O | -5.58
NS(=O)(=O)c1cc2c(cc1C(F)(F)F)NCNS2(=O)=O | -8.4
O=C(O)[C@@H]1[C@H]2C[C@H]3c4[nH]c5ccccc5c4CCN3C[C@@H]2CC[C@@H]1O | -17
C1CCN2C[C@@H]3C[C@@H](CN4CCCC[C@@H]34)[C@H]2C1 | 4.02
CC(=O)SC[C@@H](Cc1ccccc1)C(=O)NCC(=O)OCc1ccccc1 | 2.42
CN/C(=C\[N+](=O)[O-])NCCSCc1csc(CN(C)C)n1 | -1.68
O=C(O)COC(=O)Cc1ccccc1Nc1c(Cl)cccc1Cl | -2.19
CCCNC(C)C(=O)Nc1c(C)csc1C(=O)OC (configuration not stated) | 8.39
CO[C@@]1(NC(=O)C(C(=O)O)c2ccc(O)cc2)C(=O)N2C(C(=O)O)=C(CSc3nnnn3C)CO[C@@H]21 (some centres not stated) | -17.7
CC1(C)[C@@H](OC(=O)CCC(=O)O)CC[C@]2(C)[C@H]3C(=O)C=C4[C@@H]5C[C@@](C)(C(=O)O)CC[C@]5(C)CC[C@@]4(C)[C@]3(C)CC[C@@H]12 | -5.99

Input: Tell me the measured activity, negative = cell killing of NC(=O)NC1NC(=O)NC1=O (configuration not stated) , please.
Output: 1.99

Input: For CCN(CC)CCc1nc(-c2ccccc2)no1 then?
Output: -35.3

Input: For CC(=O)OCC(=O)[C@@]1(O)CC[C@H]2[C@@H]3CCC4=CC(=O)C=C[C@]4(C)[C@@]3(F)[C@@H](O)C[C@@]21C then?
Output: 11.3

Input: For CCS(=O)(=O)CCn1c([N+](=O)[O-])cnc1C then?
Output: -12.4

====

- System: MCC-26
- measurementNotes: qHTS assay to identify novel small-molecules to repurpose for Merkel cell carcinoma treatment (AID 1296009); also: % is scaled to controls: 0 for no effect and ±100 for the full control effect; nearly all actives have a fitted effect of over 60% in size
- experimentalParameters: MCC and control cell lines, CellTiter-Glo viability, 72 h; series mostly up to 46 µM
Records with an inconclusive call do not appear. Activity calls are given as the source filed them. The call rests on the fitted dose curve; in most records, active means well fitted inhibition curve with a large enough effect; inconclusive means small, poorly fitted or top-dose-only effect; inactive means flat fitted curve, though single readings scatter.
attributeMeasured: activity change, negative = cytotoxicity

molecule | result
CC(CSC(=O)c1ccccc1)C(=O)N1C[C@@H](Sc2ccccc2)C[C@H]1C(=O)O (stereo partly specified) | inactive
CC(=O)Oc1cccc(C)c1 | inactive
CC(=O)N[C@@H](Cc1ccc(O)cc1)C(=O)O | inactive
O=C(O)CCC(=O)O | inactive
CO[C@@]1(NC(=O)C(C(=O)O)c2ccc(O)cc2)C(=O)N2C(C(=O)O)=C(CSc3nnnn3C)CO[C@@H]21 (stereo partly specified) | inactive

# evaluate next
Input: Tell me the measured activity change, negative = cytotoxicity of NC(=O)c1ccc([N+](=O)[O-])cc1Cl , please.
Output: inactive

====

- measurementNotes: qHTS of pediatric cancer cell lines to identify multiple opportunities for drug repurposing: Primary screen for RD cells (AID 1347104);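 also: plate controls were DMSO for no effect and bortezomib for full effect; nearly all actives have a fitted effect of over 55% in size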
- experimentalParameters: RD rhabdomyosarcoma viability, CellTiter-Glo luminescence, 48 h; series mostly up to 46 µM
Inconclusive results are not listed. The source made the active and inactive calls. The call rests on the fitted dose curve; in most records, active means well fitted cell-killing curve with a large enough effect; inconclusive means small, poorly fitted or top-dose-only effect; inactive means flat fitted curve, though single readings scatter.
attributeMeasured: activity change, negative = cytotoxic

For orientation, consider the following solved cases.
molecule | result
Nc1c2c(nc3c1CCC3)CCCC2 | inactive
C1CCN2C[C@@H]3C[C@@H](CN4CCCC[C@@H]34)[C@H]2C1 | inactive
CN1CC(=O)NC1=N | inactive
CC(=O)Nc1ccc(OCCOCCOc2ccc(NC(C)=O)cc2)cc1 | inactive
NC(N)=NCCN1CCCCCCC1 | 3.85% [at 0.597 µM] (inactive)

Input: Tell me the measured activity change, negative = cytotoxic of CC1(C)S[C@@H]2[C@H](NC(=O)C(C(=O)O)c3ccccc3)C(=O)N2[C@H]1C(=O)O (some centres not stated) , please.
Output: inactive

Input: For CC1(C)S[C@@H]2[C@H](N=CN3CCCCCC3)C(=O)N2[C@H]1C(=O)O then?
Output: inactive

====

- measurementNotes: NFAT Signaling Pathway (AID 444);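 also: carbachol stimulus at about its EC50 of 1 µM final; % is scaled to controls: 0 for no effect and ±100 for the full control effect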
- experimentalParameters: Jurkat NFAT-bla M1, carbachol, beta-lactamase ratio, 5 h; at 17.2 µM (top of the series) unless noted
- Protocol: NCGC Assay Overview: The nuclear factor of activated T cells (NFAT) family of transcription factors has been found primarily in most immune system cells and some other non-immune cells. NFAT plays the immunomodulatory role, primarily in T-cell activation and differentiation. […] NCGC Assay Protocol Summary: The cells were prepared in RPMI 1640 medium containing 0.1% dialyzed FBS and 25 mM HEPES at 1.6 x 10^6cell/ml. […] The %Activity was determined from the ratio of 460nm/530nm. […]
Inconclusive results are not listed. Activity calls are given as the source filed them. Calls follow the shape of the dose curve; as a rule, active = well fitted curve in either direction with a large enough effect (not every such curve was filed as active); inconclusive = small, poorly fitted or top-dose-only effect, or another doubt; inactive = flat fitted curve, though single readings scatter.
Response enum: class 1 (active), class 0 (inactive)

compound | class
O=C(O)c1ccccc1OP(=O)(O)O | class 0
CC(C)=CCC/C(C)=C/CO | class 0
O=C(O)c1ccccc1C(=O)Nc1ccc(S(=O)(=O)Nc2nccs2)cc1 | class 0
O=C(O)CCCc1ccccc1 | class 0
Cc1cc(C)nc(NS(=O)(=O)c2ccc(N)cc2)n1 | class 0

Input: Query: recorded result category for CC(=O)SC[C@@H](Cc1ccccc1)C(=O)NCC(=O)OCc1ccccc1 in this test
Output: class 0

Input: For C[C@@H]1CCC[C@H](C)N1 then?
Output: class 0

Input: For Cc1c(NC(=O)c2cccnc2)c(=O)n(-c2ccccc2)n1C then?
Output: class 0

Input: For Cn1c(=O)c2c(ncn2CCO)n(C)c1=O then?
Output: class 0

Input: For CN1CCCN=C1COC(=O)C(O)(c1ccccc1)C1CCCCC1 (configuration not stated) then?
Output: class 1

====

- Test system: CP335
- measurementNotes: qHTS profiling for inhibitors of Plasmodium falciparum proliferation (AID 504749);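 also: 0% = DMSO vehicle and full inhibition = artemisinin control; nearly all actives have a fitted effect of over 60% in size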
- experimentalParameters: P. falciparum in erythrocytes, SYBR Green DNA, 72 h; series mostly up to 28.7 µM
Results filed as inconclusive are left out. Active and inactive are the calls of the source. Calls come from the whole dose curve; as a rule, active = well fitted inhibition curve with a large enough effect; inconclusive = small, poorly fitted or top-dose-only effect; inactive = flat fitted curve, though single readings scatter.
Response enum: True (active), False (inactive)

As a guide, the following entries are already answered.
compound | class
NS(=O)(=O)c1cc2c(cc1C(F)(F)F)NCNS2(=O)=O | False
CCN(CC)S(=O)(=O)c1ccc(C(=O)O)cc1 | False
O=C(O)CCCCC1CCSS1 (configuration not stated) | False
CCc1cccc(CC)c1NC(=O)CN(CC(=O)O)CC(=O)O | False
CCCCCCCC(=O)OCC(O)CO (configuration not stated) | False
NNC(=O)CP(=O)(c1ccccc1)c1ccccc1 | False
O=C(O)c1ccc[n+]([O-])c1 | False
CC(O)CCCCn1c(=O)c2c(ncn2C)n(C)c1=O (configuration not stated) | False
CNc1c2c(nn1C)CCCC2 | False
Cc1cc(C)c(NC(=O)CN(CC(=O)O)CC(=O)O)c(C)c1Br | False

Input: Query: recorded result category for Cc1c(NC(C)C)c(=O)n(-c2ccccc2)n1C in this test
Output: False

Input: For O=C(Cn1ccnc1[N+](=O)[O-])NCc1ccccc1 then?
Output: False

Input: For Cc1cc(=O)[nH]c(=S)[nH]1 then?
Output: False

Input: For Cn1c([N+](=O)[O-])cnc1COC(N)=O then?
Output: False

Input: For COc1cc(O)cc(O)c1 then?
Output: False

Input: For Cc1cc(C)nc(NS(=O)(=O)c2ccc(N)cc2)n1 then?
Output: False

====

- Test system: CP291
- measurementNotes: qHTS profiling for inhibitors of Plasmodium falciparum proliferation (AID 504749);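 also: 0% = DMSO vehicle and full inhibition = artemisinin control; nearly all actives have a fitted effect of over 60% in size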
- experimentalParameters: P. falciparum in erythrocytes, SYBR Green DNA, 72 h; series mostly up to 28.7 µM
- Experimental: NIH National Institute of Allergy and Infectious Diseases [NIAID] NIH Chemical Genomics Center [NCGC] […] Because mature erythrocytes lack DNA, only Plasmodium-derived DNA is detected. NCGC Assay Protocol Summary: The SYBR Green viability assay was adapted from a method described previously (Plouffe et al., 2008). […] The following morning, fluorescence intensity at 485(14) nm excitation and 535(25) nm emission wavelengths was measured on an EnVision (Perkin Elmer) plate reader. […]
Records with an inconclusive call do not appear. Active and inactive are the calls of the source. The call rests on the fitted dose curve; in most records, active means well fitted inhibition curve with a large enough effect; inconclusive means small, poorly fitted or top-dose-only effect; inactive means flat fitted curve, though single readings scatter.
attributeMeasured: outcome

chemicalStructure | outcome
O=C(CCBr)N1CCN(C(=O)CCBr)CC1 | inactive
Nc1ccncc1N | inactive
c1ccc2[nH]ccc2c1 | inactive
CC(=O)Oc1cccc(C)c1 | inactive
NC(N)=NS(=O)(=O)c1ccc(N)cc1 | inactive

Input: Tell me the measured outcome of O=C(O)COC(=O)Cc1ccccc1Nc1c(Cl)cccc1Cl , please.
Output: inactive

Input: For O=C(O)CCC(=O)O then?
Output: inactive

Input: For Cc1ccc(C(C)C)c(O)c1 then?
Output: inactive
